Where do these numbers come from? They come from paper PMC7699524.

# System: Caco-2 cells
# ASSAY: Permeability across Caco-2 monolayer (apical concentration by LC-MS)
# MEASUREMENT_PARAMETERS: Caco-2 monolayer, LC-MS
REPORTED_ENDPOINT: SL conjugates with cysteine in the apical side after 4 h

// solved cases for SL conjugates with cysteine in the apical side after 4 h follow
# COMPOUND, OBSERVED_MEASUREMENT
rows = [
    ("C=C1C(=O)O[C@@H]2[C@H]3C(CO)=CC(=O)C3=C(C)C[C@H](O)[C@@H]12", "detected"),
    ("C=C1C(=O)O[C@@H]2/C=C(\\C)CC/C=C(\\C)CC[C@@H]12 [Costunolide]", "detected"),
    ("C=C1C(=O)O[C@@H]2[C@H]3C(CO)=CC(=O)C3=C(C)C[C@H](OC(=O)Cc3ccc(O)cc3)[C@@H]12", "detected"),
    ("CC1=C2C(=O)C=C(CO)C2C2OC(=O)C(C)C2C(O)C1 (stereo not drawn) [11β,13-dihydrolactucin]", "not detected"),
    ("CC1=C2C(=O)C=C(CO)C2C2OC(=O)C(C)C2C(OC(=O)Cc2ccc(O)cc2)C1 (stereo not drawn) [11β,13-dihydrolactucopicrin]", "not detected"),
]

Item: C=C1C(=O)O[C@H]2[C@H]1CC/C(C)=C/CC[C@@]1(C)O[C@@H]21 [Parthenolide, parthenolide, reference compound] Test system: Caco-2 cells Read-out: SL conjugates with cysteine in the apical side after 4 h Value: ?
detected

---

# Test system: Caco-2 cells
# ASSAY: Permeability across Caco-2 monolayer (apical concentration by LC-MS)
# MEASUREMENT_PARAMETERS: Caco-2 monolayer, SL added at 10 µM apical, after 4 h
REPORTED_ENDPOINT: Concentration of SL (Apical Side) t = 4 h

// solved cases for Concentration of SL (Apical Side) t = 4 h follow
# MOLECULE, OBSERVED_MEASUREMENT
rows = [
    ("CC1=C2C(=O)C=C(CO)C2C2OC(=O)C(C)C2C(O)C1 (stereo not drawn) [11β,13-dihydrolactucin]", "8.3 ± 1.4 µM"),
    ("CC1=C2C(=O)C=C(CO)C2C2OC(=O)C(C)C2C(OC(=O)Cc2ccc(O)cc2)C1 (stereo not drawn) [11β,13-dihydrolactucopicrin]", "4.9 ± 0.9 µM"),
    ("C=C1C(=O)O[C@@H]2[C@H]3C(CO)=CC(=O)C3=C(C)C[C@H](OC(=O)Cc3ccc(O)cc3)[C@@H]12", "<LOQ"),
    ("C=C1C(=O)O[C@@H]2[C@H]3C(CO)=CC(=O)C3=C(C)C[C@H](O)[C@@H]12", "5.9 ± 0.5 µM"),
    ("C=C1C(=O)O[C@H]2[C@H]1CC/C(C)=C/CC[C@@]1(C)O[C@@H]21 [Parthenolide, parthenolide, reference compound]", "<LOQ"),
]

Which Concentration of SL (Apical Side) t = 4 h value belongs to C=C1C(=O)O[C@@H]2/C=C(\C)CC/C=C(\C)CC[C@@H]12 [Costunolide] ?
<LOD

---

# Test system: Caco-2 cells
# ASSAY: Permeability across Caco-2 monolayer (apical concentration by LC-MS)
# MEASUREMENT_PARAMETERS: Caco-2 apical side; conjugates estimated against calibration curves of parent SLs
REPORTED_ENDPOINT: Apical Concentration t = 4 h (µM Equivalents to Parent SL)

// solved cases for Apical Concentration t = 4 h (µM Equivalents to Parent SL) follow
# COMPOUND, OBSERVED_MEASUREMENT
rows = [
    ("C=C1C(=O)O[C@@H]2/C=C(\\C)CC/C=C(\\C)CC[C@@H]12 [Costunolide]", "<LOD"),
    ("C=C1C(=O)O[C@H]2[C@H]1CC/C(C)=C/CC[C@@]1(C)O[C@@H]21 [Parthenolide, parthenolide, reference compound]", "<LOQ"),
    ("C=C1C(=O)O[C@@H]2[C@H]3C(CO)=CC(=O)C3=C(C)C[C@H](O)[C@@H]12 [Lactucin, lactucin]", "5.9 ± 0.5 µM Equivalents to Parent SL"),
    ("C=C1C(=O)O[C@@H]2[C@H]3C(CO)=CC(=O)C3=C(C)C[C@H](OC(=O)Cc3ccc(O)cc3)[C@@H]12 [Lactucopicrin, lactucopicrin]", "<LOQ"),
]

Now, please, on to the next compound.
Item: C/C1=C\[C@H]2OC(=O)C(CSC[C@H](N)C(=O)O)[C@@H]2CC/C(C)=C/CC1 (some centres unmarked) [Costunolide-Cys] Test system: Caco-2 cells Read-out: Apical Concentration t = 4 h (µM Equivalents to Parent SL) Value: ?
95 ± 8.4 µM Equivalents to Parent SL
